# Measurement target: human dopamine receptor type 2, long variant (hD2L) (Homo sapiens (Human), UniProt P14416)
# Experiment summary: [3H]-Spiperone binding assay at hD2 recombinant receptor (CHO-Gα16-hD2L membranes)
Measurement name: D2 p Ki

- Compound: "Cn1cccc1-c1nnc(SCCCN2CCOC(c3ccc(C(F)(F)F)cc3)C2)n1C (stereo not drawn) [Example 24]"
  Measurement target: "human dopamine receptor type 2, long variant (hD2L) (Homo sapiens (Human), UniProt P14416)"
  D2 p Ki: 5.18
- Compound: "Cn1c(SCCCN2CCOC(c3ccc(C(F)(F)F)cc3)C2)nnc1-c1ccsc1 (stereo not drawn) [Example 28]"
  Measurement target: "human dopamine receptor type 2, long variant (hD2L) (Homo sapiens (Human), UniProt P14416)"
  D2 p Ki: 5.06
- Compound: "Cc1ncoc1-c1nnc(SCCCN2CCO[C@H](c3ccc(C(F)(F)F)cc3)C2)n1C (single isomer, unassigned) [Example 9]"
  Measurement target: "human dopamine receptor type 2, long variant (hD2L) (Homo sapiens (Human), UniProt P14416)"
  D2 p Ki: 5.36
- Compound: "Cn1c(SCCCN2CCOC(c3ccc(C(F)(F)F)cc3)C2)nnc1-c1ccc(-c2nnco2)cc1 (stereo not drawn) [Example 29]"
  Measurement target: "human dopamine receptor type 2, long variant (hD2L) (Homo sapiens (Human), UniProt P14416)"
  D2 p Ki: 4.91
- Compound: "Cn1c(SCCCN2CCOC(c3ccc(C(F)(F)F)cc3)C2)nnc1-c1ccc(C(N)=O)cc1 (single isomer, unassigned) [Example 13]"
  Measurement target: "human dopamine receptor type 2, long variant (hD2L) (Homo sapiens (Human), UniProt P14416)"
  D2 p Ki: 4.86
- Compound: "Cn1c(SCCCN2CCOC(c3ccc(C(F)(F)F)cc3)C2)nnc1-c1ccc(C(N)=O)cn1 (stereo not drawn) [Example 22]"
  Measurement target: "human dopamine receptor type 2, long variant (hD2L) (Homo sapiens (Human), UniProt P14416)"
  D2 p Ki: 4.79
- Compound: "Cn1c(SCCCN2CCOC(c3ccc(C(F)(F)F)cc3)C2)nnc1-c1ccc(C#N)cc1 (stereo not drawn) [Example 31]"
  Measurement target: "human dopamine receptor type 2, long variant (hD2L) (Homo sapiens (Human), UniProt P14416)"
  D2 p Ki: 4.95
- Compound: "Cn1c(SCCCN2CCOC(c3ccc(C(F)(F)F)cc3)C2)nnc1-c1ccc(C(N)=O)cc1 (stereo not drawn) [Example 11]"
  Measurement target: "human dopamine receptor type 2, long variant (hD2L) (Homo sapiens (Human), UniProt P14416)"
  D2 p Ki: 4.96
- Compound: "Cc1ncoc1-c1nnc(SCCCN2CCOC(c3ccc(C(F)(F)F)cc3F)C2)n1C (stereo not drawn) [Example 34]"
  Measurement target: "human dopamine receptor type 2, long variant (hD2L) (Homo sapiens (Human), UniProt P14416)"
  D2 p Ki: 4.96
- Compound: "Cn1c(SCCCN2CCOC(c3ccc(C(F)(F)F)cc3)C2)nnc1-c1ccc(-c2ncco2)cc1 (stereo not drawn) [Example 14]"
  Measurement target: "human dopamine receptor type 2, long variant (hD2L) (Homo sapiens (Human), UniProt P14416)"
  D2 p Ki: 5.83
- Compound: "Cn1c(SCCCN2CCOC(c3ccc(C(F)(F)F)cc3)C2)nnc1-c1cccnc1 (stereo not drawn) [Example 18]"
  Measurement target: "human dopamine receptor type 2, long variant (hD2L) (Homo sapiens (Human), UniProt P14416)"
  D2 p Ki: 4.83
- Compound: "Cn1c(SCCCN2CCOC(c3ccc(C(F)(F)F)cc3)C2)nnc1-c1ccc(-c2ncco2)cc1 (single isomer, unassigned) [Example 15]"
  Measurement target: "human dopamine receptor type 2, long variant (hD2L) (Homo sapiens (Human), UniProt P14416)"
  D2 p Ki: 4.81
- Compound: "CC(=O)c1ccc(-c2nnc(SCCCN3CCOC(c4ccc(C(F)(F)F)cc4)C3)n2C)cc1 (stereo not drawn) [Example 32]"
  Measurement target: "human dopamine receptor type 2, long variant (hD2L) (Homo sapiens (Human), UniProt P14416)"
  D2 p Ki: 4.65
